The measurements presented in this section are drawn from patent US12310975B2.

target: BCL6 (Homo sapiens (Human), UniProt P41182); experiment: Immunofluorescence high content imaging of BCL6 degradation in T47D cells; format: cell-based; settings: T47D
Answer each item with its documented Dmax.

- compound: "CNC(=O)COc1cc2cc(Nc3nc(N4CCC(OC5CN(c6cccc7c6C(=O)N(C6CCC(=O)NC6=O)C7=O)C5)CC4)ncc3Cl)ccc2n(C)c1=O (stereo not shown)"
  Dmax: "< 50%"
- compound: "CNC(=O)COc1cc2cc(Nc3nc(N4CCC(OC5CN(c6ccc7c(c6)C(=O)N(C6CCC(=O)NC6=O)C7=O)C5)CC4)ncc3Cl)ccc2n(C)c1=O (stereo not shown)"
  Dmax: "< 50%"
- compound: "CNC(=O)COc1cc2cc(Nc3nc(N4CCN(CC5CCN(c6cc(OC)cc(C(=O)NC7CCC(=O)NC7=O)c6F)CC5)CC4)ncc3Cl)ccc2n(C(C)C)c1=O (stereo not shown)"
  Dmax: "50 to 70%"
- compound: "CNC(=O)COc1cc2cc(Nc3nc(N4C[C@@H](C)N(CC5CCN(c6ccc(C(=O)NC7CCC(=O)NC7=O)c(F)c6)CC5)[C@@H](C)C4)ncc3Cl)ccc2n(C)c1=O (stereo partly shown)"
  Dmax: "< 50%"

# map each compound to its Dmax
1. CNC(=O)COc1cc2cc(Nc3nc(N4CCOC(CN5CCN(c6cccc7c6C(=O)N(C6CCC(=O)NC6=O)C7=O)CC5)C4)ncc3Cl)ccc2n(C)c1=O (stereo not shown)
2. CNC(=O)COc1cc2cc(Nc3nc(N4CCN(CC5CCN(c6ccc(C(=O)NC7CCC(=O)NC7=O)c(F)c6)CC5)CC4)ncc3Cl)ccc2n(C)c1=O (stereo not shown)
3. CNC(=O)COc1cc2cc(Nc3nc(N4CCC5(CCN(CC6CCN(c7ccc8c(c7)C(=O)N(C7CCC(=O)NC7=O)C8=O)CC6)C5)CC4)ncc3Cl)ccc2n(C(C)C)c1=O (stereo not shown)
4. CNC(=O)COc1cc2cc(Nc3nc(N(C)C)ncc3Cl)ccc2n(CCCOc2ccc3c(c2)C(=O)N(C2CCC(=O)NC2=O)C3=O)c1=O (stereo not shown)
5. CCn1c(=O)c(OCC(=O)NC)cc2cc(Nc3nc(N4CCN(C(C)(C)C5CCN(c6cccc7c6C(=O)N(C6CCC(=O)NC6=O)C7=O)CC5)CC4)ncc3Cl)ccc21 (stereo not shown)
6. CC(=O)COc1cc2cc(Nc3nc(N4CCN(CCCN5CCN(c6ccc7c(c6)C(=O)N(C6CCC(=O)NC6=O)C7=O)CC5)CC4)ncc3Cl)ccc2n(C)c1=O (stereo not shown)
7. CNC(=O)COc1cc2cc(Nc3nc(N(C)C)ncc3Cl)ccc2n(CCOc2ccc3c(c2)C(=O)N(C2CCC(=O)NC2=O)C3=O)c1=O (stereo not shown)
8. CNC(=O)COc1cc2cc(Nc3nc(N4CC5(CCC(OC6CCN(c7cccc8c7C(=O)N(C7CCC(=O)NC7=O)C8=O)CC6)CC5)C4)ncc3Cl)ccc2n(C(C)C)c1=O (stereo not shown)

1: 50 to 70%; 2: < 50%; 3: ≥ 70%; 4: < 50%; 5: ≥ 70%; 6: 50 to 70%; 7: < 50%; 8: ≥ 70%

Provide Dmax for all items below, preserving their order.
1. CNC(=O)COc1cc2cc(Nc3nc(N4CCC(CN5CC6(CCN(c7cccc8c7CN(C7CCC(=O)NC7=O)C8=O)CC6)C5)CC4)ncc3Cl)ccc2n(C(C)C)c1=O (stereo not shown)
2. CNC(=O)COc1cc2cc(Nc3nc(N4CCC(CN5CC6CC5CN6c5ccc6c(c5)C(=O)N(C5CCC(=O)NC5=O)C6=O)CC4)ncc3Cl)ccc2n(C)c1=O (stereo not shown)
3. CNC(=O)COc1cc2cc(Nc3nc(N4CCC(O[C@H]5C[C@H](COc6cccc7c6C(=O)N(C6CCC(=O)NC6=O)C7=O)N(C)C5)CC4)ncc3Cl)ccc2n(C(C)C)c1=O (stereo partly shown)
4. CNC(=O)COc1cc2cc(Nc3nc(N4CCC(CN5CCC(c6cc(OC)cc(C(=O)NC7CCC(=O)NC7=O)c6F)CC5)CC4)ncc3Cl)ccc2n(C)c1=O (stereo not shown)
5. CNC(=O)COc1cc2cc(Nc3nc(N4CCC(C5(N6CCC(c7ccc8c(c7)C(=O)N(C7CCC(=O)NC7=O)C8=O)CC6)CC5)CC4)ncc3Cl)ccc2n(C)c1=O (stereo not shown)
6. CONC(=O)COc1cc2cc(Nc3nc(N4CCC(CN5CCN(c6ccc7c(c6)C(=O)N(C6CCC(=O)NC6=O)C7=O)CC5)CC4)ncc3Cl)ccc2n(C)c1=O (stereo not shown)
7. CNC(=O)COc1cc2cc(Nc3cc(N4CCN(CC5CCN(c6ccc7c(c6)C(=O)N(C6CCC(=O)NC6=O)C7=O)CC5)CC4)ncc3Cl)ccc2n(C)c1=O (stereo not shown)

1. 50 to 70%
2. < 50%
3. < 50%
4. < 50%
5. 50 to 70%
6. ≥ 70%
7. ≥ 70%

Could you tell me Dmax for each of these compounds? They are listed below.
1. CNC(=O)COc1cc2cc(Nc3nc(N4CCN(C)CC4)ncc3Cl)ccc2n(CCCOc2ccc3c(c2)C(=O)N(C2CCC(=O)NC2=O)C3=O)c1=O (stereo not shown)
2. CCn1c(=O)c(OCC(=O)NC)cc2cc(Nc3nc(N4CCN(CC5CCN(c6cccc(C(=O)NC7CCC(=O)NC7=O)c6F)CC5)CC4)ncc3Cl)ccc21 (stereo not shown)
3. CNC(=O)COc1cc2cc(Nc3nc(N4CCN(C(C)(C)C5CCN(c6ccc(OC)c(C(=O)NC7CCC(=O)NC7=O)c6F)CC5)CC4)ncc3Cl)ccc2n(C)c1=O (stereo not shown)

1. ≥ 70%
2. 50 to 70%
3. ≥ 70%

* * *

molecular target: BCL6 (Homo sapiens (Human), UniProt P41182); assay: BCL6 TR-FRET assay (BCL6-Avitag-Biotin / BCoR-Cy5 peptide); assay type: binding; details: read-out: IC50
pIC50: −log10 of the molar value.
Answer each item with its documented pIC50.

// worked examples, pIC50 included
- molecule: "CNC(=O)COc1cc2cc(Nc3nc(N4CCC(CN5CCCN(c6ccc(OC)c(N7CCC(=O)NC7=O)c6)CC5)CC4)ncc3Cl)ccc2n(C(C)C)c1=O [compound 530]"
  pIC50: "7.30 to 8.00"
- molecule: "CNC(=O)COc1cc2cc(Nc3nc(N4CCC5(CC4)CC(OC4CCN(c6cccc(C(=O)NC7CCC(=O)NC7=O)c6F)CC4)C5)ncc3Cl)ccc2n(C(C)C)c1=O (centres unmarked) [compound 453]"
  pIC50: "7.30 to 8.00"
- molecule: "CNC(=O)COc1cc2cc(Nc3nc(N4CCC(O[C@@H]5C[C@H](COc6ccc7c(c6)C(=O)N(C6CCC(=O)NC6=O)C7=O)N(C)C5)CC4)ncc3Cl)ccc2n(C(C)C)c1=O (some centres unmarked) [compound 460]"
  pIC50: "≤ 7.00"
- molecule: "CNC(=O)COc1cc2cc(Nc3nc(N4CCC[C@H](COc5cccc6c5C(=O)N(C5CCC(=O)NC5=O)C6=O)C4)ncc3Cl)ccc2n(CCC2COC2)c1=O (some centres unmarked) [compound 504]"
  pIC50: "7.00 to 7.30"
- molecule: "CNC(=O)COc1cc2cc(Nc3nc(N4CCC5(CC4)CCN(C4CCN(c6ccc7c(c6)C(=O)N(C6CCC(=O)NC6=O)C7=O)CC4)C5)ncc3Cl)ccc2n(C(C)C)c1=O (centres unmarked) [compound 514]"
  pIC50: "> 8.00"

Please state, for each entry, its recorded pIC50.
1. CNC(=O)COc1cc2cc(Nc3nc(N4CCC(CN5CC6(CCN(c7cccc8c7C(=O)N(C7CCC(=O)NC7=O)C8=O)C6)C5)CC4)ncc3Cl)ccc2n(C(C)C)c1=O (centres unmarked) [compound 501]
2. CNC(=O)COc1cc2cc(Nc3nc(N4CCC(CN5CCCN(c6cccc(N7CCC(=O)NC7=O)c6OC)CC5)CC4)ncc3Cl)ccc2n(C(C)C)c1=O [compound 535]
3. CNC(=O)COc1cc2cc(Nc3nc(N4CCC[C@H](COc5cccc6c5C(=O)N(C5CCC(=O)NC5=O)C6=O)C4)ncc3Cl)ccc2n(CCOC)c1=O (some centres unmarked) [compound 455]
4. CNC(=O)COc1cc2cc(Nc3nc(N4CCC(CN5CC6(CCN(c7ccc8c(c7)C(=O)N(C7CCC(=O)NC7=O)C8=O)C6)C5)CC4)ncc3Cl)ccc2n(C(C)C)c1=O (centres unmarked) [compound 500]
5. CNC(=O)COc1cc2cc(Nc3nc(N4CCC(CN5CCN(c6cc(OC)cc(C(=O)NC7CCC(=O)NC7=O)c6F)CC5)CC4)ncc3Cl)ccc2n(C(C)C)c1=O (centres unmarked) [compound 466]
6. CNC(=O)COc1cc2cc(Nc3nc(N4CCC(O[C@@H]5C[C@H](Oc6cccc7c6C(=O)N(C6CCC(=O)NC6=O)C7=O)CN(C)C5)CC4)ncc3Cl)ccc2n(C(C)C)c1=O (some centres unmarked) [compound 487]

1. > 8.00
2. 7.30 to 8.00
3. 7.00 to 7.30
4. > 8.00
5. > 8.00
6. ≤ 7.00
